- Subject of test: T1, βTrCP (tag cleaved and complexed with Skp1) (UniProt Q9Y297 175-605; P63208 1-163)
- T1 construct: Protein of the fluorescence polarisation assay, 0.035 µM; also called Beta Transducin repeat-containing protein; βTrCP/Skp1
- Assay info: FP competition, 10 nM fluorescein-IκB peptide on βTrCP/Skp1
No end group written: not given here.
Property label: IC50 (µM)
Answers are plain numbers, in µM.

Inquiry: State the recorded IC50 for this entry: DEGFFE-NH2 [DEGFFE-NH2]
Reply text: 43.6

Data origin, for the record: patent US20190106460A1
